- subject.of.test: T1, Human IL-18Rα extracellular domain (human, UniProt Q13478 22-329, biotinylated (site not stated))
- T1 construct: also called IL-18 receptor
- T1 sequence: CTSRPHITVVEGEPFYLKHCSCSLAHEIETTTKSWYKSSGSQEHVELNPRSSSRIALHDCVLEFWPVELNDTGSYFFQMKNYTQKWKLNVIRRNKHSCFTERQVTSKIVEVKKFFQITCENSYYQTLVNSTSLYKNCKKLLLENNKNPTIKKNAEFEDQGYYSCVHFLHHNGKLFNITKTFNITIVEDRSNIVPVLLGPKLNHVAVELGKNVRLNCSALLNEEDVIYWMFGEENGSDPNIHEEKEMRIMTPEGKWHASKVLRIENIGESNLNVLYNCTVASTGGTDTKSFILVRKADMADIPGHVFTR
- assay.details: SPR, Biacore 8K, 37 C, biotinylated target on SA chip, single-cycle kinetics
Measured kon, listed per entry for reference.
measured.metric: kon (M⁻¹ s⁻¹)

# binder, measured.metric, units.label, value
measured = [
    ("Human IL-18 L174C (ligand, Made in mammalian cells) YFGKLESKLSVIRNLNDQVLFIDQGNRPLFEDMTDSDSRDNAPRTIFIISMYKDSQPRGMAVTISVKSEKISTLSCENKIISFKEMNPPDNIKDTKSDIIFFQRSVPGHDNKMQFESSSYEGYFLASEKERDLFKLICKKEDELGDRSIMFTVQNED", "kon", "M⁻¹ s⁻¹", 350000),
    ("Human IL-18 S43C/S86C (ligand, Made in mammalian cells) YFGKLECKLSVIRNLNDQVLFIDQGNRPLFEDMTDSDSRDNAPRTIFIICMYKDSQPRGMAVTISVKSEKISTLSSENKIISFKEMNPPDNIKDTKSDIIFFQRSVPGHDNKMQFESSSYEGYFLASEKERDLFKLILKKEDELGDRSIMFTVQNED", "kon", "M⁻¹ s⁻¹", 440000),
    ("Human IL-18 L45C/E192C (ligand, Made in mammalian cells) YFGKLESKCSVIRNLNDQVLFIDQGNRPLFEDMTDSDSRDNAPRTIFIISMYKDSQPRGMAVTISVKSEKISTLSSENKIISFKEMNPPDNIKDTKSDIIFFQRSVPGHDNKMQFESSSYEGYFLASEKERDLFKLILKKEDELGDRSIMFTVQNCD", "kon", "M⁻¹ s⁻¹", 470000),
]
